# Assay Overview: NCI Yeast Anticancer Drug Screen. Data for the mec2-1 strain (AID 157)
# Run Conditions: S. cerevisiae mec2-1 strain, at 50.0 µM, active compounds read high
Compounds without any hit were thinned out: in the full panel of roughly 79,000, 15% have a hit.
Result Type: growth inhibition (%)

[
  {
    "Compound": "C=C1CC(C)(COc2ccc3c(C)c(Cl)c(=O)oc3c2)OC1=O (stereo unspecified)",
    "Result Unit": "%",
    "Experimental Value": 68.8
  },
  {
    "Compound": "CN(C)C(=O)/C=C/c1c[nH]c(=O)[nH]c1=O",
    "Result Unit": "%",
    "Experimental Value": -2.3
  },
  {
    "Compound": "CCOC1(c2ccccc2)c2ccccc2S(=O)(=O)N1C (stereo unspecified)",
    "Result Unit": "%",
    "Experimental Value": 0.95
  },
  {
    "Compound": "O=[N+]([O-])c1ccc(-c2nc3c(o2)CCC3)cc1",
    "Result Unit": "%",
    "Experimental Value": -2.9
  },
  {
    "Compound": "CCNc1cc(SC)nc(N)n1",
    "Result Unit": "%",
    "Experimental Value": 37.1
  },
  {
    "Compound": "COc1ccc(CSC(=S)Nc2ccc(Cl)cc2Cl)cc1",
    "Result Unit": "%",
    "Experimental Value": 99.3
  },
  {
    "Compound": "CC(=O)Nc1ccc(/C=c2\\sc3nnc(-c4cccnc4)n3c2=O)cc1",
    "Result Unit": "%",
    "Experimental Value": 88
  },
  {
    "Compound": "COc1cc2c(c(C3C(=O)N(C)c4ccc(Br)cc43)c1OC)OCO2 (stereo unspecified)",
    "Result Unit": "%",
    "Experimental Value": 12.7
  },
  {
    "Compound": "c1cc[c]([Sn]([O]c2cccc3cccnc23)([c]2ccccc2)[c]2ccccc2)cc1",
    "Result Unit": "%",
    "Experimental Value": 92.2
  },
  {
    "Compound": "C[N+](C)(C)CCN(Cc1cccs1)c1ccccn1",
    "Result Unit": "%",
    "Experimental Value": 29.9
  },
  {
    "Compound": "Cc1ccc(S(=O)(=O)C(C#N)(CCC(=O)/C=C/c2ccccc2)CCC(=O)/C=C/c2ccccc2)cc1",
    "Result Unit": "%",
    "Experimental Value": 2.35
  }
]

###

growth inhibition: recorded values
# Assay Overview: NCI Yeast Anticancer Drug Screen. Data for the bub3 strain (AID 167)
# Run Conditions: S. cerevisiae bub3 mutant strain, at 5.0 µM (retest, dose inferred, filed as 0.5), active compounds read high
This is part of a sample that, as a whole, favours compounds with a hit. Of some 79,000 tested, about 15% had one in any assay.
Result Type: growth inhibition (%)

[
  {
    "Molecule": "c1ccc(CCN(Cc2nc3ccccc3[nH]2)Cc2nc3ccccc3[nH]2)cc1",
    "Experimental Value": 0
  },
  {
    "Molecule": "Cc1ccc(C2=CC(=O)/C(=C\\C(=O)c3ccc(Cl)cc3)O2)cc1",
    "Experimental Value": 22
  },
  {
    "Molecule": "CCOC(=O)c1[nH]c2c([N+](=O)[O-])cccc2c1[N+](=O)[O-]",
    "Experimental Value": 0
  },
  {
    "Molecule": "Cc1cccc(/C=N/NC(=S)Nc2ccccc2)n1",
    "Experimental Value": -42
  },
  {
    "Molecule": "CCOC(=O)C(=CCC1NCCc2c1[nH]c1ccccc21)C(=O)OCC (configuration not stated)",
    "Experimental Value": 30
  },
  {
    "Molecule": "CC1(C)c2ccccc2Cc2cc3ccccc3nc21",
    "Experimental Value": -3
  },
  {
    "Molecule": "COc1ccc(CCCC(=O)O)c2c(OC)cccc12",
    "Experimental Value": 4
  },
  {
    "Molecule": "CC(=O)Nc1ccc(C(C)(C)c2ccc(C)cc2)cc1",
    "Experimental Value": 4
  },
  {
    "Molecule": "Oc1ccc(N=Nc2cc(Cl)ccc2Cl)cc1",
    "Experimental Value": 93
  },
  {
    "Molecule": "COC1OC(CBr)C(OC(c2ccccc2)(c2ccccc2)c2ccccc2)C(OC(c2ccccc2)(c2ccccc2)c2ccccc2)C1OC(c1ccccc1)(c1ccccc1)c1ccccc1 (configuration not stated)",
    "Experimental Value": -2
  },
  {
    "Molecule": "O=NNc1ccc(Sc2ccc3ccccc3c2)cn1",
    "Experimental Value": 30
  },
  {
    "Molecule": "O=C(O)C1(Cc2ccc3c(c2)CCC3)Cc2cc3c(cc2C1)CCC3",
    "Experimental Value": -11
  },
  {
    "Molecule": "CC(=O)/C(=C\\c1ccco1)C(=O)Nc1ccccc1",
    "Experimental Value": -4
  },
  {
    "Molecule": "CC(CC(=O)c1ccc2sc3ccccc3c2c1)C(=O)O (configuration not stated)",
    "Experimental Value": -2
  },
  {
    "Molecule": "Cc1noc(NS(=O)(=O)c2ccc(NCc3c4ccccc4nc4cc(Cl)ccc34)cc2)c1C",
    "Experimental Value": 9
  },
  {
    "Molecule": "O=C1C(=O)c2ccccc2C(O)=C1C(c1ccccc1)c1ccccc1",
    "Experimental Value": 18
  },
  {
    "Molecule": "CC1=CC2OC3CC4OC(=O)/C=C/C=C/C(C(C)O)OCC(=O)C(C)CC(=O)OCC2(CC1)C4(C)C31CO1 (configuration not stated)",
    "Experimental Value": 60
  },
  {
    "Molecule": "O=C1C(CN2CCCC2)C(O)=C(c2ccccc2)N1c1ccccc1 (configuration not stated)",
    "Experimental Value": -6
  },
  {
    "Molecule": "Cc1cc2nc3n(c2cc1C)C(c1c(F)cccc1F)SC3 (configuration not stated)",
    "Experimental Value": 26
  },
  {
    "Molecule": "CC1CC(N)=NC1C(=O)NCCC#N (configuration not stated)",
    "Experimental Value": 25
  },
  {
    "Molecule": "ON=C(CC(O)(C(F)(F)Cl)C(F)(F)Cl)CC(O)(C(F)(F)Cl)C(F)(F)Cl",
    "Experimental Value": 23
  },
  {
    "Molecule": "CSCS(=O)C[C@H](CO)NC(=O)/C=C/c1c(C)[nH]c(=O)[nH]c1=O (some centres not stated)",
    "Experimental Value": 5
  }
]
